# target_or_system: Serine protease 1 (Homo sapiens, UniProt P07477)
# Sequence (P07477 whole entry): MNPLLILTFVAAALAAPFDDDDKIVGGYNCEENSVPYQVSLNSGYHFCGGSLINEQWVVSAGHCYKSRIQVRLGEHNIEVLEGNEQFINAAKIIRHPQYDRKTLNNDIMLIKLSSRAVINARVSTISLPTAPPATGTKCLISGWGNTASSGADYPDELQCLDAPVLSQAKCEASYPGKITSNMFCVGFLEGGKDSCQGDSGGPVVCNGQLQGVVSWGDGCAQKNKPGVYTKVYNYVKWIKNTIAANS
# test_name: Ratio of inhibitory constant evaluated against trypsin to that of thrombin (Factor IIa)
endpoint_name: Selectivity ratio

// known answers, use as guide
# compound, Selectivity ratio
data = [
    ("NCc1ccccc1CNC(=O)[C@@H]1CCCN1C(=O)[C@H](N)Cc1ccccc1", 339),
    ("Cc1ccc(NS(=O)(=O)Cc2ccccc2)c(=O)n1CC(=O)NCc1cc(Cl)ccc1CN", 40200),
    ("Cc1ccc(NS(=O)(=O)Cc2ccccc2)c(=O)n1CC(=O)NCc1ccccc1CCN", 107000),
    ("Cc1nc(N)ccc1CNC(=O)Cn1c(C)ccc(NS(=O)(=O)Cc2ccccc2)c1=O [L-374087]", 6400),
    ("Cc1ccc(NS(=O)(=O)Cc2ccccc2)c(=O)n1CC(=O)NCc1ccccc1CN", 12900),
    ("Cc1cnc(NCCc2ccccc2)c(=O)n1CC(=O)NCc1cc(Cl)ccc1CN", 12300),
    ("N[C@H](Cc1ccccc1)C(=O)N1CCC[C@H]1C(=O)NCc1ccccc1", "> 217"),
]

Next:
Measured Selectivity ratio (Serine protease 1 (Homo sapiens, UniProt P07477)), entry "Cc1ccc(NS(=O)(=O)Cc2ccccc2)c(=O)n1CC(=O)NCc1ccccc1" : 3580
